test system: MDA-MB-435
Give one outcome, nothing more. List: TRUE for active, FALSE for inactive

Some entries whose results are on file:
// return assay outcome for CCOc1ccc(-c2nonc2NC(=O)c2cccc(C)c2)cc1OCC
FALSE

Recorded test call requested for Cc1c(-c2c(-c3ccc(F)o3)sc3ncnc(O[C@H](Cc4ccccc4OCc4ccnn4CC(F)(F)F)C(=O)O)c23)ccc(OCCN2CCN(C)CC2)c1Cl
FALSE

Continuing:
What was the test verdict on C#CCC(Cc1cnc2nc(N)nc(N)c2n1)c1ccc(C(=O)N[C@@H](CCC(=O)O)C(=O)O)cc1 (some centres undefined) ?
TRUE

Please let me know the test result on file for CCc1c(C#N)c(S[C@@H](C(N)=O)c2ccccc2)nc(N(C)C)c1C#N .
FALSE

###

system: SK-MEL-2 melanoma; assay: NCI tumour cell line growth inhibition, 48 h
Decide using TGI: a value greater than or equal to 30 µM is Satisfied, a smaller one is Not satisfied.

Solved cases below.
hey, is TGI for this one >= 30 µM? CCN1CCN(c2ccc(Nc3ccnc4ccc5c(nnn5C)c34)cc2)CC1
Not satisfied

API: above_or_equal(metric=TGI, cutoff=30 µM) for item CCCc1cc2c(=O)c(C(=O)OC)c[nH]c2cc1N(CC)CC
Satisfied

Evaluate N#Cc1c(Cl)cccc1Oc1ccc(S(=O)(=O)/N=C(\NN)Nc2ccc(Cl)cc2)cc1 : TGI at minimum 30 µM?
Satisfied

Determine whether this compound has TGI no lower than 30 µM: O=C(CN1CCN(CCCOc2c(-c3ccccc3)oc3ccccc3c2=O)CC1)Nc1ccc(Cl)cc1C(=O)c1ccccc1Cl
Satisfied

Next:
Entry C/C(=N\Nc1cc(C)c2cc(C)ccc2n1)c1ccccn1 : is its TGI no less than 30 µM?
Not satisfied

###

test system: XF 498 CNS; assay: NCI tumour cell line growth inhibition, 48 h
Documented TGI across a set of compounds

Sample answers from the record:
Given item O=[N+]([O-])c1nccn1CC(O)CN1CC1 (stereo unspecified) , the value recorded as its TGI is > 100 µM

Per the record, Cc1cc2nc(CCC(=O)O)c(=O)[nH]c2cc1C has TGI of > 100 µM

More entries:
Sample Nc1ccc2nc(Nc3ccc(F)cc3)cnc2c1 ; TGI observed: > 100 µM

Recorded result, CCOC(=O)C12CCC(=O)C=C1[C@@H](C)C(=O)CC2 (stereo partly specified) , TGI: > 100 µM

Value of TGI reported for the compound COc1ccc(C[C@H](N)C(=O)NC2C(CO)OC(n3cnc4c(N(C)C)ncnc43)C2O)cc1 (stereo partly specified) is 0.166 µM

Query CC1(c2cccc3ccccc23)OC(=O)c2ccccc21 (stereo unspecified) yields TGI of 45.2 µM

###

system: SF-268 CNS; assay: NCI tumour cell line growth inhibition, 48 h
experimentalReadout: TGI

Some solved entries appear below for comparison.
Consider O=C1C=C(Sc2ccccc2)c2nccc3c2c1nc1ccccc13 . Its measured TGI is 26.7 µM

The measured TGI associated with COc1ccc(-n2nnnc2-c2c[nH]c3c(F)cc(F)cc23)cc1 reads > 100 µM

Kindly note the recorded TGI for COc1ccc(/C=C/C(=O)/C=C/c2ccc(OC)cc2)cc1 , which is > 100 µM

***
The compound Cn1c(=O)nc2n(-c3cccc(Br)c3)c3ccccc3nc-2c1=O showed TGI equal to 23.4 µM

// field: TGI; key: Cc1ccc(C)n1-n1c(Cc2ccccc2)n[nH]c1=O ; value = > 100 µM

Where these numbers come from: PubChem BioAssay (NCI)
